Biological target: PYL9 (with HAB1) (Arabidopsis thaliana)
Construct: PYL9 from E. coli BL21(DE3), pET-28a or pGEX-4T-2 (TEV site), IMAC and SEC, monomer; HAB1 residues 169-511, GST cut by TEV; with Protein phosphatase 2C 16
Sequence (Q84MC7 whole entry, one chain of several, the tested form may be a part): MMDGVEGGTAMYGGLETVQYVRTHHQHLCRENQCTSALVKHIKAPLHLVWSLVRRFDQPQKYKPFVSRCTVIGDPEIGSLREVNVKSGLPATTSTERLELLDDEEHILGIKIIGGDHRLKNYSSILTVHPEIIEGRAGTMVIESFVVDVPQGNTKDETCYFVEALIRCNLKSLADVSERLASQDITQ
Assay: HAB1 phosphatase inhibition assay (phosphopeptide, molybdate)
pIC50: −log10 of the molar value.
reported endpoint: pIC50

Incoming: Requested field: pIC50. Item: CC1=CC(=O)CC(C)(C)[C@]1(O)/C=C/C(C)=C\C(=O)O [(−)-ABA]
Outgoing: < 5.00

====

Target: PYR1 (with HAB1) (Arabidopsis thaliana, UniProt O49686)
Construct: PYR1 from E. coli BL21(DE3), pET-28a or pGEX-4T-2 (TEV site), IMAC and SEC; HAB1 residues 169-511, GST cut by TEV; with Protein phosphatase 2C 16
Sequence (O49686 1-191): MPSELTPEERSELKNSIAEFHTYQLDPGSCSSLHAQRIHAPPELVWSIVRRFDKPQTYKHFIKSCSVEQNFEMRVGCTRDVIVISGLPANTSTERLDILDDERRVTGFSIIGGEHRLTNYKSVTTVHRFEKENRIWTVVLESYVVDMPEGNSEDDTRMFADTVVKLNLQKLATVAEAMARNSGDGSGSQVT
Sequence (Q9CAJ0 169-511 partner): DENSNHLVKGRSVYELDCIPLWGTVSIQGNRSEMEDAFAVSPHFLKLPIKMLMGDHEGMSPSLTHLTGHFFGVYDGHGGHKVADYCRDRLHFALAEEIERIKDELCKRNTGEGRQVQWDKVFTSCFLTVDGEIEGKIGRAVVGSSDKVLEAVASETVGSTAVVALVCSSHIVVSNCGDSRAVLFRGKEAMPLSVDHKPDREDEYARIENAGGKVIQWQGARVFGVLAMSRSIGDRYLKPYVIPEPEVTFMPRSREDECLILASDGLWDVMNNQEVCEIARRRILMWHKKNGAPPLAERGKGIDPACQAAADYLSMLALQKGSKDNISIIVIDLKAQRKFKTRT
Assay: HAB1 phosphatase inhibition assay (phosphopeptide, molybdate)
reported endpoint: pIC50
Give only the number. pIC50 is defined as minus log10 of concentration in molar units.

Incoming: Recorded pIC50 for CC1=CC(=O)CC(C)(C)[C@]1(O)/C=C/C(C)=C\C(=O)O [(−)-ABA] , please?
Outgoing: 5.35

These measurements were taken from paper PMC3699650.
